biological target: PTP1B (Homo sapiens, UniProt P18031)
Sequence (P18031 whole entry, species assumed): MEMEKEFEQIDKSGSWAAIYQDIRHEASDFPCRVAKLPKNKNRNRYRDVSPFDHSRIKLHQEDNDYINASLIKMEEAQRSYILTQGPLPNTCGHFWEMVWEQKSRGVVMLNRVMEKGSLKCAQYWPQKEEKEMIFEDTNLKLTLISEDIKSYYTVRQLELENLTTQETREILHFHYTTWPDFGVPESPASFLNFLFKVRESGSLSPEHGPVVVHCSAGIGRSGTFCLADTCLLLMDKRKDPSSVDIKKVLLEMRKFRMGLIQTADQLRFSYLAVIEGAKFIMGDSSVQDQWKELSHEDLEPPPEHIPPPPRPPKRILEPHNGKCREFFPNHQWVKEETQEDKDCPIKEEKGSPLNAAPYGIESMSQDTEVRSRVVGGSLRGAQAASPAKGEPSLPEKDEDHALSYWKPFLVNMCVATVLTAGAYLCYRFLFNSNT
So I've got a bunch of compounds here, and I need their IC50 values.

Recorded results for 7 compounds are shown here.
In [3]: df
Out[3]:
                           smiles_notation  attribute_measured  reported_value
0  CCc1oc2ccccc2c1C(=O)c1cc(Br)c(O)c(Br)c1                IC50         53.8 µM
1       O=C(c1cc2ccccc2o1)c1coc2ccc(O)cc12                IC50         11.8 µM
2                     CCCCC(=O)c1ccc(O)cc1                IC50        > 150 µM
3                CC(=O)c1c(C)oc2ccc(O)cc12                IC50        > 150 µM
4    COc1ccc(OC)c(C(=O)c2coc3ccc(O)cc23)c1                IC50          102 µM
5         O=C(c1ccc(F)cc1)c1coc2ccc(O)cc12                IC50        > 150 µM
6        COc1ccc(C(=O)c2coc3ccc(O)cc23)cc1                IC50        > 150 µM

Please find the next compound below.
Exam item: Given the entry CCc1oc2ccccc2c1C(=O)c1ccc(O)cc1 , report its measured IC50.
Marked response: > 150 µM
